Molecular target: T1, GARS, endogenous in H929 multiple myeloma cells (human, UniProt P41250 37-739, limits assumed)
T1 construct: Native protein pulled down from H929 lysates; also called Glycyl-tRNA synthetase; GlyRS
T1 sequence: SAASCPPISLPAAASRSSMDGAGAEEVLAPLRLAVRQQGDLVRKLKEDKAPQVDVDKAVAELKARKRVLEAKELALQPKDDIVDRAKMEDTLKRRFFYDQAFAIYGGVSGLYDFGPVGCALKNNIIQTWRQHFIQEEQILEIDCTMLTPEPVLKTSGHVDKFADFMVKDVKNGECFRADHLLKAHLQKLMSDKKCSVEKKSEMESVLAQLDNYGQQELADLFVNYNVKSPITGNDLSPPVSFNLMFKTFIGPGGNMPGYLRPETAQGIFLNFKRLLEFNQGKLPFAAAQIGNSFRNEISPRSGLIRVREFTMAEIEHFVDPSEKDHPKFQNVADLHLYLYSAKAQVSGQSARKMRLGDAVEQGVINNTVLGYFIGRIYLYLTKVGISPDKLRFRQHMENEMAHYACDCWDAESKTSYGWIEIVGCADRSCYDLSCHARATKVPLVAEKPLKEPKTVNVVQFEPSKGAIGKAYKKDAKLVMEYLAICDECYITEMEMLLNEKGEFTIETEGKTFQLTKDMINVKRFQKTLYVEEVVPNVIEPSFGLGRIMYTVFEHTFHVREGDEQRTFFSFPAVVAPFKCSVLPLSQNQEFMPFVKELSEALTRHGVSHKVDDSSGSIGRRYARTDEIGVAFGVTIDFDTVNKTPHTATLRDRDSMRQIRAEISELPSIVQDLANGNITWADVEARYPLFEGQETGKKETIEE
Test: flow cytometry, H929 + CDH18 siRNA; None 0.19; surface target GARS putative
Measured Cells stained (%) by item
reported.endpoint: Cells stained (%)

[
  {
    "binder": "HW-8 chimeric rabbit-human IgG1 LA/LA/PG (antibody, V domains shown, Fc-silenced (L234A/L235A/P329G) IgG1, kappa; Alexa Fluor 647-labeled in single-step flow cytometry; Cluster C-45) VH: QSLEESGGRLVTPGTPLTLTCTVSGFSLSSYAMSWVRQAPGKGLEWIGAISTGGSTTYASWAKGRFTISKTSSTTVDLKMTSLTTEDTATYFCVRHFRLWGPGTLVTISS VL: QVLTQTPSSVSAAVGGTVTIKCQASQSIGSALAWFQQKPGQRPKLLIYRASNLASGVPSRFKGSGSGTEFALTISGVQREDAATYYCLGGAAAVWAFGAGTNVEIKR",
    "reported.endpoint": "Cells stained (%)",
    "quantitative.readout": 99.4
  },
  {
    "binder": "HW-28 chimeric rabbit-human IgG1 LA/LA/PG (antibody, V domains shown, Fc-silenced (L234A/L235A/P329G) IgG1, lambda; Alexa Fluor 647-labeled in single-step flow cytometry; Cluster C-45) VH: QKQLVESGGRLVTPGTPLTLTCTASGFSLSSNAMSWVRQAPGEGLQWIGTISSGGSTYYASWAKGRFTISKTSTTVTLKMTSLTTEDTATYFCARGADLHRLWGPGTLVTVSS VL: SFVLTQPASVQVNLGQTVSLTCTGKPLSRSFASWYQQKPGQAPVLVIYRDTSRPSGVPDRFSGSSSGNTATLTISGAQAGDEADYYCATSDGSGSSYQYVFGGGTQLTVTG",
    "reported.endpoint": "Cells stained (%)",
    "quantitative.readout": 99.4
  },
  {
    "binder": "HW-81 chimeric rabbit-human IgG1 LA/LA/PG (antibody, V domains shown, Fc-silenced (L234A/L235A/P329G) IgG1, lambda; Alexa Fluor 647-labeled in single-step flow cytometry; Cluster C-45) VH: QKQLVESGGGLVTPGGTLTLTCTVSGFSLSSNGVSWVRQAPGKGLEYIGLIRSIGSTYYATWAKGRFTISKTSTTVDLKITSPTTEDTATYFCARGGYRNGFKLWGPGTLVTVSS VL: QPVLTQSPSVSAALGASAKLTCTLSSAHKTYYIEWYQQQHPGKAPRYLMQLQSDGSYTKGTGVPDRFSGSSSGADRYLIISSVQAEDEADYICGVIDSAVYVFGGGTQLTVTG",
    "reported.endpoint": "Cells stained (%)",
    "quantitative.readout": 99.3
  },
  {
    "binder": "HW-45 chimeric rabbit-human IgG1 LA/LA/PG (antibody, V domains shown, Fc-silenced (L234A/L235A/P329G) IgG1, lambda; Alexa Fluor 647-labeled in single-step flow cytometry; Prototype of cluster C-45) VH: QKQLVESGGRLVTPGTPLTLTCTVSGFSLSSYAMGWFRQAPGKGLEWIGIINSYGSTYYASWAKGRFTISKTSTTVDLKITSPTTEDTATYFCGRRIGSARFDPWGPGTLVTVSS VL: SFVLTQPASVQVNLGQTVSLTCTADTLSRSYASWYQQKPGQAPVLLIYRDTRRPSGVPDRFSGSSSGNTATLTISGAQAGDEADYYCATSDGSGSSYRLVFGGGTQLTVTG",
    "reported.endpoint": "Cells stained (%)",
    "quantitative.readout": 99.4
  },
  {
    "binder": "HW-16 chimeric rabbit-human IgG1 LA/LA/PG (antibody, V domains shown, Fc-silenced (L234A/L235A/P329G) IgG1, kappa; Alexa Fluor 647-labeled in single-step flow cytometry; Cluster C-45) VH: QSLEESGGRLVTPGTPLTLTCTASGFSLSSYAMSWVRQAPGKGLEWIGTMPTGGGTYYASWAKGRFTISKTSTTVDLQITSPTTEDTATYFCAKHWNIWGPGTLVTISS VL: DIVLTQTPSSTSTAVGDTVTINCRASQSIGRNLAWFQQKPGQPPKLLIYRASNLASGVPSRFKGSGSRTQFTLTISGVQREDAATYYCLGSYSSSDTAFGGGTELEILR",
    "reported.endpoint": "Cells stained (%)",
    "quantitative.readout": 98.6
  },
  {
    "binder": "HW-56 chimeric rabbit-human IgG1 LA/LA/PG (antibody, V domains shown, Fc-silenced (L234A/L235A/P329G) IgG1, kappa; Alexa Fluor 647-labeled in single-step flow cytometry; Cluster C-45) VH: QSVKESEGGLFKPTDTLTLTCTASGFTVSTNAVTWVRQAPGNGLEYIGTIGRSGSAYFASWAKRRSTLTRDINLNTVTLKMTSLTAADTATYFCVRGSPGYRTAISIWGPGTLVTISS VL: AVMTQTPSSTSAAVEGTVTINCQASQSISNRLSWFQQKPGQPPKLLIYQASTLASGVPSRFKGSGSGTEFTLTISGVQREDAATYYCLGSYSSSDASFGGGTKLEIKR",
    "reported.endpoint": "Cells stained (%)",
    "quantitative.readout": 99.9
  }
]
